# assay details: recombinant UMI read abundance after kanamycin selection (control-corrected) (log10(CPM+1)); higher = more efficient recombination; extreme values may be limits of the assay; sequences stand for … in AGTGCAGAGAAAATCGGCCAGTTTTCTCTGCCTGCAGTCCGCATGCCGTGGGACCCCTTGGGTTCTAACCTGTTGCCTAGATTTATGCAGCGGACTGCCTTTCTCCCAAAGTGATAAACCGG…AGGTTGGTTTCACT; site = the 11-nt donor
Each entry below carries its reported recombinant UMI read abundance (log10).

residues	recombinant UMI read abundance (log10)
CCTGAAGCATGGACCGGTTTTCCCGGTAATCCGTATTTGAT (site CCTTAAGCTAT)	0
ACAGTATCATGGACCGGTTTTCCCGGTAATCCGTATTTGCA (site ACACTATCTTG)	1.61
GAAGATACATGGACCGGTTTTCCCGGTAATCCGTATTTGTT (site GAAGATGCTAA)	0.602
CGATCGACATGGACCGGTTTTCCCGGTAATCCGTATTTGTA (site CGATCGACTTA)	1.19

---

Each entry below carries its reported recombinant barcode read abundance (log10).
# assay details: recombinant barcode read abundance after kanamycin selection (control-corrected) (log10(CPM+1)); higher = more efficient recombination; sequences stand for … in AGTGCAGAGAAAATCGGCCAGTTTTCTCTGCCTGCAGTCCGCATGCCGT…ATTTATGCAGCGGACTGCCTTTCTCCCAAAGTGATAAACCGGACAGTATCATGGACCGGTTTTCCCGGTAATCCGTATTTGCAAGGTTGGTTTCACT; site = the 11-nt target
recorded endpoint: recombinant barcode read abundance (log10)

residues	result
TAGAGGGCTTGGGTTCTAACCTGTTGCGGTG [TAGAGGGCTCC_LTGcore_CT_RTGcore_CA] (site TAGAGGGCTCC) (LTG core: CT, RTG core: CA)	0.438
TCGCGACCTTGGGTTCTAACCTGTTGCCGAT [TCGCGACCTCG_LTGcore_CT_RTGcore_AT] (site TCGCGACCTCG) (LTG core: CT, RTG core: AT)	0.514
GTCGCCCACTGGGTTCTAACCTGTTGCTAGT [GTCGCCCCTTA_LTGcore_AC_RTGcore_AC] (site GTCGCCCCTTA) (LTG core: AC, RTG core: AC)	0.348

---

# assay details: recombinant barcode read abundance after kanamycin selection (control-corrected) (log10(CPM+1)); higher = more efficient recombination; sequences stand for … in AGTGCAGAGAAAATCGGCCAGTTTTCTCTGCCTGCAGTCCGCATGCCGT…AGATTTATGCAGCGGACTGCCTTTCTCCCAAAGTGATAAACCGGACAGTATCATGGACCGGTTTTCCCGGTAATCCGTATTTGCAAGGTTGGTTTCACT; site = the 11-nt target
Where recombinant barcode read abundance (log10) equals or exceeds 0.3, the correct label is criterion met; where it does not, the label is criterion not met.

residues	group
CGTCTAGCTTGGGTTCTAACCTGTTGCCA (site CGTGGAGCTTG)	criterion not met
CACCAATCTTGGGTTCTAACCTGTTGCCT (site CACCAATCTAG)	criterion met
TTCTGTCCTTGGGTTCTAACCTGTTGCCT (site TTCTGTCCTAG)	criterion met
CTGTGCACTTGGGTTCTAACCTGTTGCCG (site CTGTGCACTCG)	criterion not met
CTGGAGACTTGGGTTCTAACCTGTTGCTT (site CTGGAGACTAA)	criterion met
CCAGTGACTTGGGTTCTAACCTGTTGCCT (site CCAGTTACTAG)	criterion not met
